Cited source for all entries: patent US20230131402A1

- TARGET_UNDER_TEST: NMDAR2D (Homo sapiens, UniProt O15399+Q05586)
- Construct: expressed in transfected cells; host or cells: HEK cells (membrane extract)
- Sequence (O15399 28-1336, species assumed, other chains not shown): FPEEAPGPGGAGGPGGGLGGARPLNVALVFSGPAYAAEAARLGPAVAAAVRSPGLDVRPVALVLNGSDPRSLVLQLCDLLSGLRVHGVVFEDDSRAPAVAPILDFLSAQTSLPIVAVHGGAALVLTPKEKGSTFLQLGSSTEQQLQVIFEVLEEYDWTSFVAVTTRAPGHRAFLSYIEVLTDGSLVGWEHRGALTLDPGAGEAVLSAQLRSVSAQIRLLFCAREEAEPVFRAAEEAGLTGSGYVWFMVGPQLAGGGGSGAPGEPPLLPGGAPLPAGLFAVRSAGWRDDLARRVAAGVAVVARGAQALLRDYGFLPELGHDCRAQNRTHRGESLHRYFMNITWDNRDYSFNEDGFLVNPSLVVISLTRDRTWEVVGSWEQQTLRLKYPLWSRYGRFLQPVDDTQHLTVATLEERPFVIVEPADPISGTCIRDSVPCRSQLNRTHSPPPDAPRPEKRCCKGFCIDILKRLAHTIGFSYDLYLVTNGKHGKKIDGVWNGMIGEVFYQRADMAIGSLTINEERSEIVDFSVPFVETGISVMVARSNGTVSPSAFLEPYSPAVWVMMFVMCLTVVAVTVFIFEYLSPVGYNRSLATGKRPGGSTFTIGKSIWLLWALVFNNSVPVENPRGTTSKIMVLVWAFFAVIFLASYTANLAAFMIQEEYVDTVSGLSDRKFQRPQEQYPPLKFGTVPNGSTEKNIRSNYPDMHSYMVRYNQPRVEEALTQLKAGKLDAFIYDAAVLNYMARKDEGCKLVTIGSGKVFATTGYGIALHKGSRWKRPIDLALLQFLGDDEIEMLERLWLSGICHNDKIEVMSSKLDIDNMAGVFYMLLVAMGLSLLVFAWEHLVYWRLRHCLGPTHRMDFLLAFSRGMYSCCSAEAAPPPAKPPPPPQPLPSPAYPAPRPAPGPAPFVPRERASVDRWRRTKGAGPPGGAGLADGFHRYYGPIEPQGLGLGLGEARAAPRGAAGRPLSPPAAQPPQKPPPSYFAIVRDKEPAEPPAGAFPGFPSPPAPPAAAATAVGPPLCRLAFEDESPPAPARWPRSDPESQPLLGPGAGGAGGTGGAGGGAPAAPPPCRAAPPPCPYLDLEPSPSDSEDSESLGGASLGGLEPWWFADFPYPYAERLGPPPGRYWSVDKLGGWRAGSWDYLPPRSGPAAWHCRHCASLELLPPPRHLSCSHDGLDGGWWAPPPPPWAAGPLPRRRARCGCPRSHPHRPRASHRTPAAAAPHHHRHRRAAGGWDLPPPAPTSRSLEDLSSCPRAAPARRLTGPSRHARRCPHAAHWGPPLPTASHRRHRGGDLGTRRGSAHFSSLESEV
- PROCEDURE_DETAILS: [3H]MK-801 binding, NMDAR2D expressing HEK cell membranes
- Assay type: biochemical
- PROTOCOL_CONDITIONS: 50 μM glutamate, read-out: NMDAR2D A: % maximal [3H]MK-801 binding relative to 1 mM glycine
- Method: Assays were conducted as described by Moskal et al., “GLYX-13: a monoclonal antibody-derived peptide that acts as an N-methyl-D-aspartate receptor modulator,” Neuropharmacology, 49, 1077-87, 2005. These studies were designed to determine if the test compounds act to facilitate NMDAR activation in NMDAR2A, NMDAR2B, NMDAR2C or NMDAR2D expressing HEK cell membranes as measured by increases in [^3H]MK-801 binding. […]
OUTCOME_MEASURE: Emax

Solved entries:
O=C1NCC12CN(Cc1ccccc1)CCN2Cc1ccccc1 (single isomer, unassigned) ... 0%
O=C1NCC12CNCCN2Cc1ccccc1 (single isomer, unassigned) ... < 100%
C[C@@H](O)[C@H](N)C(=O)N1CCN(Cc2ccccc2)C2(CNC2=O)C1 (single isomer, unassigned) ... 0%
CN1CCN(C(=O)OC(C)(C)C)CC12CN(CC(N)=O)C2=O (centres unmarked) ... < 100%
C[C@@H](O)[C@H](N)C(=O)N1CCN(C(=O)OC(C)(C)C)CC12CNC2=O (single isomer, unassigned) ... < 100%
CC(C)(C)OC(=O)N1CCN(C(=O)OC(C)(C)C)C2(CNC2=O)C1 (single isomer, unassigned) ... 0%
CC(C)(C)OC(=O)N1CCNC2(CNC2=O)C1 (single isomer, unassigned) ... < 100%

Moving on to another compound below.
Name the recorded Emax for C[C@@H](O)[C@H](N)C(=O)N1CCNC2(CNC2=O)C1 (single isomer, unassigned) . < 100%
